Test system: MS2 coat protein
Experiment: apparent KD of MS2 coat protein, switch OFF state (with FMN for OFF switches, without FMN for ON switches); designed switch direction (-1 OFF switch, 1 ON switch): -1; higher = weaker reporter binding
Details: FMN input: 0 or 200 uM; Eterna round: R93 (includes R88 designs)
READOUT_KIND: apparent KD of MS2 coat protein
# number then unit; no other words

// query Input UAAAAACAUGAGGAUCACCCAUGUAAGGAUAUGCUGAAAAACACGGAAAAAACGUGCAGCAGAAGGUACAAAAU [Mat - Exclusion 1 - Eli mod - D98] , output reported apparent KD of MS2 coat protein.
// result 47.6 nM

// query Quickly give me recorded apparent KD of MS2 coat protein for AAGAAGGAAGGAUAUACAUGAGGAUCACCCAUGUAAAAGAAAGAGGGAAAAGAGAAAAGUAGAAGGUCCAAGAA [Ptolemy V Epiphanes]
// result 30.3 nM

// query State its apparent KD of MS2 coat protein: GUAAACCUAGGAUAUACAUGAGGAUCACCCAUGUAAAAUUUAAUAAAAAGAAAAUCAAGUAGAAGGAGGUAGAU [JR_Exc003_Sub1224]
// result 29.3 nM

// query Name the recorded apparent KD of MS2 coat protein of the sequence listed here: UAAAGACAUGAGGAUCACCCAUGUGAGGAUAUUGGUGACUAUAAAAAAAAAUAGUCACCGAGAAGGCAUAGGAA [JR_Exc001_Sub302]
// result 42.4 nM

// query Let me know recorded apparent KD of MS2 coat protein for AACAGACAUGAGGAUCACCCAUGUGAGGAUAUCCAAAACGAUAAAACAAGAAUGACAGGGAGAAGGCACAGCAA [JR_Exc001_Sub008] , thanks.
// result 52.2 nM

// query Consider the sequence AACUGGUGAGGAUAUCUGGAUAGGAAAAAGAAAACCUAUCCAGAGAAGGCACAUGAGGAUCACCCAUGUAAAAA [JL cataway mod 9] . State its measured apparent KD of MS2 coat protein.
// result 51.9 nM

// query Note down apparent KD of MS2 coat protein recorded for UUGGGACAUGAGGAUCACCCAUGUAAGGAUAUUGGCGCGCCGGCUCUGUCUGUUCCGCCGAGAAGGUACACGUU [Exclusion I]
// result 102 nM

---

Recorded apparent KD of MS2 coat protein values for a group of sequences are listed next.
Test system: MS2 coat protein
Experiment: apparent KD of MS2 coat protein, switch OFF state (with FMN for OFF switches, without FMN for ON switches); designed switch direction (-1 OFF switch, 1 ON switch): -1; higher = weaker reporter binding
Conditions: FMN input: 0 or 200 uM; Eterna round: R93 (includes R88 designs)
Report the value in nM with no unit label.

Consider the worked cases shown below.
- BIOPOLYMER_SEQUENCE: "CUCUUGUAAGGAUAUGACUACAUAAAAAAAAAAAAAUGUAGUCAGAAGGUACAUGAGGAUCACCCAUGUACUAA [Brourd - Exclusion 4 - Sub 2]"
  OBSERVED: 26.2
- BIOPOLYMER_SEQUENCE: "CCGAGACAUGAGGAUCACCCAUGUGAGGAUAUAGGUGUAUGCUAAAAAAAGUUAACAACUAGAAGGCACAGAGG [JR_Exc001_Sub308]"
  OBSERVED: 129
- BIOPOLYMER_SEQUENCE: "UAAAACCUAGGAUAUACAUGAGGAUCACCCAUGUGGCACUCCGCAGGCAUUGUUCCCAGUAGAAGGAGGACACG [Inan]"
  OBSERVED: 23.9
- BIOPOLYMER_SEQUENCE: "AAGACUACAGGAUAUACAUGAGGAUCACCCAUGUAACUGACGGAUAGAUGACGGAGAAGUAGAAGGGUAGUCAA [Ruby 38]"
  OBSERVED: 26.4

We next turn to a different sequence, shown below.
// query Give apparent KD of MS2 coat protein for the following sequence: GUAGAGUGAGGAUAUGAUUAAAAGAAGGGAAAGAGACAGCAUCAGAAGGCACAUGAGGAUCACCCAUGUAUGAA [JR_Exc004_Sub1224]
// result 27.1

The values you see were collected from the supplement of paper PMC9170038.
